Provide the recorded combination Emax for the entries that follow.
Tested on: KU-19-19 (Bladder Carcinoma)
Experiment: combination Emax (second highest fraction inhibited in the dose matrix, 72 h); higher = more inhibition; extreme values may be limits of the assay
Answers are plain numbers.

Record excerpt, results attached:
compound	combination Emax
CCc1c2c(nc3ccc(O)cc13)-c1cc3c(c(=O)n1C2)COC(=O)[C@]3(O)CC [SN-38] + CN(C)CCCOc1ccc(-c2ccc3ncc4c(c3c2)n(C2CCOCC2)c(=O)n4C)cn1 [AZD0156] (first compound max 0.3 µM, 7x7, partner max 1 µM)	0.828
CC1(C)CCC(CN2CCN(c3ccc(C(=O)NS(=O)(=O)c4ccc(NCC5CCOCC5)c([N+](=O)[O-])c4)c(Oc4cnc5[nH]ccc5c4)c3)CC2)=C(c2ccc(Cl)cc2)C1 [Venetoclax] + Cn1cnc2c(F)c(Nc3ccc(Br)cc3Cl)c(C(=O)NOCCO)cc21 [Selumetinib] (first compound max 1 µM, 7x7, partner max 3 µM)	0.748
COc1cccc(OCCCN)c1-c1cc(Nc2cnc(C#N)cn2)n[nH]1 [Prexasertib] + C[C@@H]1COCCN1C2=NC(=NC(=C2)C3(CC3)[S@](=N)(=O)C)C4=C5C=CNC5=NC=C4 [AZD6738] (first compound max 1 µM, 7x7, partner max 10 µM)	0.836

Now turn to the next compound.
Entry Cc1cc2ncnn2cc1Nc1ncc2c(n1)n(C1CCOCC1)c(=O)n2C [AZD7648] + CN(C)CCCOc1ccc(-c2ccc3ncc4c(c3c2)n(C2CCOCC2)c(=O)n4C)cn1 [AZD0156] (first compound max 10 µM, 7x7, partner max 1 µM) has what combination Emax?
0.212

====

Test system: NCI-H513 (Other Solid Carcinomas)
Test: combination Emax (second highest fraction inhibited in the dose matrix, 72 h); higher = more inhibition; extreme values may be limits of the assay
measurement-label: combination Emax
One number for each entry.

Record excerpt, results attached:
compound	combination Emax
CN(C)CCCOc1ccc(-c2ccc3ncc4c(c3c2)n(C2CCOCC2)c(=O)n4C)cn1 [AZD0156] + O=C(c1cc(Cc2n[nH]c(=O)c3ccccc23)ccc1F)N1CCN(C(=O)C2CC2)CC1 [Olaparib] (first compound max 3 µM, partner max 3 µM)	0.194
Cc1c2c(nn1C)CSCc1cc(n(C)n1)CSc1cc(c3ccccc3c1)OCCCc1c(C(=O)O)n(C)c3c-2c(Cl)ccc13 [AZD5991] + Cn1cnc2c(F)c(Nc3ccc(Br)cc3Cl)c(C(=O)NOCCO)cc21 [Selumetinib] (first compound max 1 µM, 7x7, partner max 3 µM)	0.473
C=CCn1c(=O)c2cnc(Nc3ccc(N4CCN(C)CC4)cc3)nc2n1-c1cccc(C(C)(C)O)n1 [AZD1775] + C[C@@H]1COCCN1C2=NC(=NC(=C2)C3(CC3)[S@](=N)(=O)C)C4=C5C=CNC5=NC=C4 [AZD6738] (first compound max 1 µM, partner max 10 µM)	0.439
CC1(C)CCC(CN2CCN(c3ccc(C(=O)NS(=O)(=O)c4ccc(NCC5CCOCC5)c([N+](=O)[O-])c4)c(Oc4cnc5[nH]ccc5c4)c3)CC2)=C(c2ccc(Cl)cc2)C1 [Venetoclax] + C=CCn1c(=O)c2cnc(Nc3ccc(N4CCN(C)CC4)cc3)nc2n1-c1cccc(C(C)(C)O)n1 [AZD1775] (first compound max 1 µM, partner max 1 µM)	0.47

Working through the 5 compounds below one at a time, give combination Emax for each.
1. CS(=O)(=O)CCNCc1ccc(-c2ccc3ncnc(Nc4ccc(OCc5cccc(F)c5)c(Cl)c4)c3c2)o1 [Lapatinib] + C[C@@H](Oc1cc(-c2cnn(C3CCNCC3)c2)cnc1N)c1c(Cl)ccc(F)c1Cl [Crizotinib] (first compound max 10 µM, 7x7, partner max 10 µM)
2. C=CCn1c(=O)c2cnc(Nc3ccc(N4CCN(C)CC4)cc3)nc2n1-c1cccc(C(C)(C)O)n1 [AZD1775] + C1CN(CCC1(C(=O)N[C@@H](CCO)C2=CC=C(C=C2)Cl)N)C3=NC=NC4=C3C=CN4 [Capivasertib] (first compound max 3 µM, partner max 3 µM)
3. CC1(C)CCC(CN2CCN(c3ccc(C(=O)NS(=O)(=O)c4ccc(NCC5CCOCC5)c([N+](=O)[O-])c4)c(Oc4cnc5[nH]ccc5c4)c3)CC2)=C(c2ccc(Cl)cc2)C1 [Venetoclax] + C[C@@H]1COCCN1C2=NC(=NC(=C2)C3(CC3)[S@](=N)(=O)C)C4=C5C=CNC5=NC=C4 [AZD6738] (first compound max 1 µM, 7x7, partner max 10 µM)
4. Cn1cnc2c(F)c(Nc3ccc(Br)cc3Cl)c(C(=O)NOCCO)cc21 [Selumetinib] + CC(C)n1c(=O)n(C)c2cnc3cc(F)c(-c4ccc(OCCCN5CCCCC5)nc4)cc3c21 [AZD1390] (first compound max 10 µM, 7x7, partner max 0.3 µM)
5. CC1(C)CCC(CN2CCN(c3ccc(C(=O)NS(=O)(=O)c4ccc(NCC5CCOCC5)c([N+](=O)[O-])c4)c(Oc4cnc5[nH]ccc5c4)c3)CC2)=C(c2ccc(Cl)cc2)C1 [Venetoclax] + Cc1cc2ncnn2cc1Nc1ncc2c(n1)n(C1CCOCC1)c(=O)n2C [AZD7648] (first compound max 1 µM, 7x7, partner max 10 µM)

0.557
0.494
0.356
0.22
0.297

Working through the 3 compounds below one at a time, give combination Emax for each.
1. CN(CCO)CC[C@H](CSc1ccccc1)Nc1ccc(S(=O)(=O)NC(=O)c2ccc(N3CCC([C@@H](O)c4ccccc4-c4ccc(Cl)cc4)CC3)cc2)cc1S(=O)(=O)C(F)(F)F [AZD4320] + Cn1cnc2c(F)c(Nc3ccc(Br)cc3Cl)c(C(=O)NOCCO)cc21 [Selumetinib] (first compound max 1 µM, 7x7, partner max 3 µM)
2. COc1cccc(OCCCN)c1-c1cc(Nc2cnc(C#N)cn2)n[nH]1 [Prexasertib] + CCc1c2c(nc3ccc(O)cc13)-c1cc3c(c(=O)n1C2)COC(=O)[C@]3(O)CC [SN-38] (first compound max 1 µM, 7x7, partner max 0.3 µM)
3. CN(CCO)CC[C@H](CSc1ccccc1)Nc1ccc(S(=O)(=O)NC(=O)c2ccc(N3CCC([C@@H](O)c4ccccc4-c4ccc(Cl)cc4)CC3)cc2)cc1S(=O)(=O)C(F)(F)F [AZD4320] + CN(C)CCCOc1ccc(-c2ccc3ncc4c(c3c2)n(C2CCOCC2)c(=O)n4C)cn1 [AZD0156] (first compound max 1 µM, 7x7, partner max 1 µM)

1: 0.398; 2: 0.695; 3: 0.143

I'm curious: which combination Emax was measured for COc1nnc2ccc(N3CCC(c4ccc(OCCN5CCN(C)C(=O)[C@H]5C)cc4)CC3)nn12 [AZD5153] + CCN(CCO)CCCOc1ccc2c(Nc3cc(CC(=O)Nc4cccc(F)c4)[nH]n3)ncnc2c1 [AZD2811] (first compound max 1 µM, 7x7, partner max 1 µM) tested on NCI-H513 (Other Solid Carcinomas)?
0.375

====

Tested on: HC-1 (Other Blood Carcinomas)
Assay: combination Emax (second highest fraction inhibited in the dose matrix, 72 h); higher = more inhibition; extreme values may be limits of the assay
Provide the recorded combination Emax for the entries that follow.
One number for each entry.

Record excerpt, results attached:
compound	measured-number
COc1cccc(OCCCN)c1-c1cc(Nc2cnc(C#N)cn2)n[nH]1 [Prexasertib] + Cc1cc2ncnn2cc1Nc1ncc2c(n1)n(C1CCOCC1)c(=O)n2C [AZD7648] (first compound max 1 µM, 7x7, partner max 10 µM)	1
COc1cccc(OCCCN)c1-c1cc(Nc2cnc(C#N)cn2)n[nH]1 [Prexasertib] + C=CCn1c(=O)c2cnc(Nc3ccc(N4CCN(C)CC4)cc3)nc2n1-c1cccc(C(C)(C)O)n1 [AZD1775] (first compound max 1 µM, partner max 1 µM)	1
Cc1nc(Nc2ncc(C(=O)Nc3c(C)cccc3Cl)s2)cc(N2CCN(CCO)CC2)n1 [Dasatinib] + CC(=O)Nc1cccc(-n2c(=O)n(C3CC3)c(=O)c3c(Nc4ccc(I)cc4F)n(C)c(=O)c(C)c32)c1 [Trametinib] (first compound max 2 µM, 7x7, partner max 1 µM)	0.494

Now turn to the next compound.
Entry COc1cc2c(cc1OCCCCCOc1cc3c(cc1OC)C(=O)N1C=C(C)C[C@H]1C=N3)N=C[C@@H]1CC(C)=CN1C2=O [SG3199] + O=C(c1cc(Cc2n[nH]c(=O)c3ccccc23)ccc1F)N1CCN(C(=O)C2CC2)CC1 [Olaparib] (first compound max 0.001 µM, 7x7, partner max 10 µM) has what combination Emax?
0.498

====

Test system: EW-18 (Ewing's Sarcoma)
Assay: combination Emax (second highest fraction inhibited in the dose matrix, 72 h); higher = more inhibition; extreme values may be limits of the assay
Hi, to clarify the labels: Yes covers combination Emax from 0.7 upward, No covers anything below 0.7.

molecule	target	category
COc1cccc(OCCCN)c1-c1cc(Nc2cnc(C#N)cn2)n[nH]1 [Prexasertib] + Cc1cc2ncnn2cc1Nc1ncc2c(n1)n(C1CCOCC1)c(=O)n2C [AZD7648] (first compound max 1 µM, 7x7, partner max 10 µM)	EW-18 (Ewing's Sarcoma)	Yes
NC1(C(=O)N[C@@H](CCO)c2ccc(Cl)cc2)CCN(c2ncnc3[nH]ccc23)CC1 [Capivasertib] + CC(C)n1c(=O)n(C)c2cnc3cc(F)c(-c4ccc(OCCCN5CCCCC5)nc4)cc3c21 [AZD1390] (first compound max 10 µM, 7x7, partner max 0.3 µM)	EW-18 (Ewing's Sarcoma)	No
Cc1cc2ncnn2cc1Nc1ncc2c(n1)n(C1CCOCC1)c(=O)n2C [AZD7648] + O=C(c1cc(Cc2n[nH]c(=O)c3ccccc23)ccc1F)N1CCN(C(=O)C2CC2)CC1 [Olaparib] (first compound max 10 µM, 7x7, partner max 10 µM)	EW-18 (Ewing's Sarcoma)	No
CN(C)CCCOc1ccc(-c2ccc3ncc4c(c3c2)n(C2CCOCC2)c(=O)n4C)cn1 [AZD0156] + CCN(CCO)CCCOc1ccc2c(Nc3cc(CC(=O)Nc4cccc(F)c4)[nH]n3)ncnc2c1 [AZD2811] (first compound max 1 µM, 7x7, partner max 1 µM)	EW-18 (Ewing's Sarcoma)	No
COc1nnc2ccc(N3CCC(c4ccc(OCCN5CCN(C)C(=O)[C@H]5C)cc4)CC3)nn12 [AZD5153] + Cn1cnc2c(F)c(Nc3ccc(Br)cc3Cl)c(C(=O)NOCCO)cc21 [Selumetinib] (first compound max 1 µM, 7x7, partner max 10 µM)	EW-18 (Ewing's Sarcoma)	No
Cc1c2c(nn1C)CSCc1cc(n(C)n1)CSc1cc(c3ccccc3c1)OCCCc1c(C(=O)O)n(C)c3c-2c(Cl)ccc13 [AZD5991] + C[C@@H]1COCCN1C2=NC(=NC(=C2)C3(CC3)[S@](=N)(=O)C)C4=C5C=CNC5=NC=C4 [AZD6738] (first compound max 1 µM, 7x7, partner max 10 µM)	EW-18 (Ewing's Sarcoma)	Yes
CC(=O)c1c(C)c2cnc(Nc3ccc(N4CCNCC4)cn3)nc2n(C2CCCC2)c1=O [Palbociclib] + CN(CC[C@H](CSC1=CC=CC=C1)NC2=C(C=C(C=C2)S(=O)(=O)NC(=O)C3=CC=C(C=C3)N4CCC(CC4)[C@H](C5=CC=CC=C5C6=CC=C(C=C6)Cl)O)S(=O)(=O)C(F)(F)F)CCO [AZD4320] (first compound max 10 µM, 7x7, partner max 1 µM)	EW-18 (Ewing's Sarcoma)	Yes

// switching to the query molecule
Is combination Emax at least 0.7? Consider CN(CCO)CC[C@H](CSc1ccccc1)Nc1ccc(S(=O)(=O)NC(=O)c2ccc(N3CCC([C@@H](O)c4ccccc4-c4ccc(Cl)cc4)CC3)cc2)cc1S(=O)(=O)C(F)(F)F [AZD4320] + Cn1cnc2c(F)c(Nc3ccc(Br)cc3Cl)c(C(=O)NOCCO)cc21 [Selumetinib] (first compound max 1 µM, 7x7, partner max 3 µM)
Yes

Hello, the source for this data is the supplement of paper PMC11061612, in case you need it.
